# self-aminoacylation listing for each entry below
# System: biotinyl-Trp-oxazolone
# ASSAY EXPLANATION: self-aminoacylation, catalytic enhancement (BWO) (fold over background); higher = more active; k-Seq, kA / k0A0; sequences stand for … in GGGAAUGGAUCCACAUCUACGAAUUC…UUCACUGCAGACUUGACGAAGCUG
This sample holds only a part of the variants without activity.

Consider the worked cases shown below.
AUUCACAUAUGUCAUCGGGUG [Fam2.2 aminoacylation ribozyme variant] : 7.3
AUUCACCUCGGUCAUCCGGUG [Fam2.2 aminoacylation ribozyme variant] : 11.1
CCACACCUCAUGCAAUCGGUC [Fam1B.1 aminoacylation ribozyme variant] : 0.975
AAGUUUGAUCAUAGUCGCAAG [Fam3.1 aminoacylation ribozyme variant] : 1.2
AUUCACGUAGGUCAACGGGUG [Fam2.2 aminoacylation ribozyme variant] : 4.47

Now look at this one.
Query :: Field: self-aminoacylation (biotinyl-Trp-oxazolone). Entry: AAUUUUGCUAAUAGUAGCAAG [Fam3.1 aminoacylation ribozyme variant]
Result :: 0.996

Just for reference, the supplement of paper PMC9233669 is where these values come from.
